Target: 1,25-dihydroxyvitamin D(3) 24-hydroxylase, mitochondrial (Homo sapiens, UniProt Q07973)
Sequence (Q07973 whole entry): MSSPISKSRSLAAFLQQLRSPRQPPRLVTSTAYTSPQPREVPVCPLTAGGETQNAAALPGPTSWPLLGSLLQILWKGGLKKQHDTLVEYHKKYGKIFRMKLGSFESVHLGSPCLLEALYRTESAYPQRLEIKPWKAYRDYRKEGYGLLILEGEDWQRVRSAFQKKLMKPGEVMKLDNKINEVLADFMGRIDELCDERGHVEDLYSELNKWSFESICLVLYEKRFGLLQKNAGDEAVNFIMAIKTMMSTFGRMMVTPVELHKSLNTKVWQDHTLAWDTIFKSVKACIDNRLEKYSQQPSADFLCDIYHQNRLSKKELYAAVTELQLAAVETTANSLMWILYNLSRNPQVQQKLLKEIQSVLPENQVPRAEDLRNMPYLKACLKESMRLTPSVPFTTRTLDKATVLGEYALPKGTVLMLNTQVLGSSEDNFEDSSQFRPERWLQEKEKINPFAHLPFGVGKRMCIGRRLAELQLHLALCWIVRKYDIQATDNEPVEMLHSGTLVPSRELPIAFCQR
Test: Inhibition of MBP-tagged human CYP24A1 expressed Escherichia coli BL21-Gold(DE3) incubated for 25 mins in presence of Adx, AdR 1,25(OH)2D3 and NADPH by HPLC method
Property name: IC50 (nM)
The reply should be a number in nM, with the unit left off.

[
  {
    "Compound": "O=C(NCC(c1ccccc1)n1ccnc1)c1cccc(/C=C/c2ccccc2C(F)(F)F)c1 (stereo not given)",
    "Readout number": 340
  }
]

Value (IC50, 1,25-dihydroxyvitamin D(3) 24-hydroxylase, mitochondrial (Homo sapiens, UniProt Q07973)) for record O=C(NCC(c1ccc(Cl)cc1)n1ccnc1)c1cccc(/C=C/c2ccccc2)c1 (stereo not given) = 160

Value (IC50, 1,25-dihydroxyvitamin D(3) 24-hydroxylase, mitochondrial (Homo sapiens, UniProt Q07973)) for record O=C(NCC(c1ccccc1)n1ccnc1)c1cccc(/C=C/c2ccccc2)c1 (stereo not given) = 190

Value (IC50, 1,25-dihydroxyvitamin D(3) 24-hydroxylase, mitochondrial (Homo sapiens, UniProt Q07973)) for record COc1ccc(/C=C/c2ccc(C(=O)NCC(c3ccc(Cl)cc3)n3ccnc3)cc2)cc1OC (stereo not given) = 120

Value (IC50, 1,25-dihydroxyvitamin D(3) 24-hydroxylase, mitochondrial (Homo sapiens, UniProt Q07973)) for record Cc1ccc(C(CNC(=O)c2ccc(/C=C/c3ccccc3)cc2)n2ccnc2)cc1C (stereo not given) = 310

Value (IC50, 1,25-dihydroxyvitamin D(3) 24-hydroxylase, mitochondrial (Homo sapiens, UniProt Q07973)) for record O=C(NCC(c1ccc(C(F)(F)F)cc1)n1ccnc1)c1cccc(/C=C/c2ccccc2)c1 (stereo not given) = 150

Value (IC50, 1,25-dihydroxyvitamin D(3) 24-hydroxylase, mitochondrial (Homo sapiens, UniProt Q07973)) for record COc1ccc(C(CNC(=O)c2ccc(/C=C/c3ccccc3)cc2)n2ccnc2)cc1 (stereo not given) = 110

Value (IC50, 1,25-dihydroxyvitamin D(3) 24-hydroxylase, mitochondrial (Homo sapiens, UniProt Q07973)) for record O=C(NCC(c1ccccc1C(F)(F)F)n1ccnc1)c1ccc(/C=C/c2ccccc2)cc1 (stereo not given) = 350

Value (IC50, 1,25-dihydroxyvitamin D(3) 24-hydroxylase, mitochondrial (Homo sapiens, UniProt Q07973)) for record O=C(NCC(c1ccc(Cl)cc1)n1ccnc1)c1ccc(/C=C/c2ccccc2)cc1 (stereo not given) = 210

Value (IC50, 1,25-dihydroxyvitamin D(3) 24-hydroxylase, mitochondrial (Homo sapiens, UniProt Q07973)) for record O=C(NCC(c1ccc(C(F)(F)F)cc1)n1ccnc1)c1ccc(/C=C/c2ccccc2)cc1 (stereo not given) = 180
